B1: VH:VL chains; a variant is named by its letters at X, in order (parent)
chain 1: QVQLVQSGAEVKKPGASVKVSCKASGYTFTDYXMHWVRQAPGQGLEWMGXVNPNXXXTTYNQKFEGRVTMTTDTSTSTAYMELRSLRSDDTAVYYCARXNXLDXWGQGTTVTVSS
chain 2: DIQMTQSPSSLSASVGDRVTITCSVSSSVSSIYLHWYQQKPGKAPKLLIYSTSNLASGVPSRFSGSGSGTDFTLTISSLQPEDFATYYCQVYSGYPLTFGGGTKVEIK

Variants of: B1
Experiment: yeast display scFab, FACS + sequencing
Endpoint: non-specific binding call

Worked examples follow.
[[record]]
sequence_variant = "FEERNSLD"
reported = "binds"

[[record]]
sequence_variant = "VTGEGALV"
reported = "no binding"

[[record]]
sequence_variant = "FRTKGAWV"
reported = "binds"

[[record]]
sequence_variant = "YREGDFVD"
reported = "binds"

[[record]]
sequence_variant = "YKARGAWD"
reported = "binds"


**Query** Reported non-specific binding call, variant YAGGDDGA : ____
**Result** no binding

**Query** I have this variant here, SEARSYLV , and I need its recorded non-specific binding call.
**Result** no binding

**Query** Which non-specific binding call value belongs to YREETSGA ?
**Result** binds

**Query** Quick one: non-specific binding call of YEKGGDGA ?
**Result** no binding

**Query** Given the entry YREKGAGD , report its measured non-specific binding call.
**Result** binds

**Query** What does the data say about its non-specific binding call? Entry: VRGRSDWV
**Result** no binding

**Query** Look up non-specific binding call for this variant: FARGGSAD
**Result** no binding
